test system: U2OS; test: cell viability relative to DMSO; higher = less toxic; conditions: 72 h; 1000 nM
Listed next: entries and their corresponding cell viability.
Please respond with the number in % and leave the unit unwritten.

COMPOUND | QUANTITATIVE_READOUT
Cl/C=C\C[N+]12CN3CN(CN(C3)C1)C2 [1-((Z)-3-chloroallyl)-1,3,5,7-tetraazaadamantan-1-ium] | 102
CCCCCCCCCCCCCCCC(=O)OC[C@@H](NC(=O)C(Cl)Cl)[C@H](O)c1ccc([N+](=O)[O-])cc1 [chloramphenicol-palmitate] | 104
CC(C)Nc1cccnc1N1CCN(C(=O)c2cc3cc(NS(C)(=O)=O)ccc3[nH]2)CC1 [delavirdine] | 98.5
Cc1c2oc3c(C)ccc(C(=O)N[C@@H]4C(=O)N[C@@H](C(C)C)C(=O)N5CCC[C@H]5C(=O)N(C)CC(=O)N(C)[C@@H](C(C)C)C(=O)O[C@@H]4C)c3nc-2c(C(=O)N[C@@H]2C(=O)N[C@@H](C(C)C)C(=O)N3CCC[C@H]3C(=O)N(C)CC(=O)N(C)[C@@H](C(C)C)C(=O)O[C@@H]2C)c(N)c1=O [actinomycin-d] | 0.7
C[C@]12CC[C@H]3[C@@H](CCC4=CC(=O)CC[C@@]43C)[C@@H]1CC[C@@H]2O [TESTOSTERONE] | 100

U2OS cell viability of CC(C)(O)c1coc(S(=O)(=O)NC(=O)Nc2c3c(cc4c2CCC4)CCC3)c1 [MCC950] is 97.7

U2OS cell viability of CCc1cccc(CC)c1NC(=O)N1Cc2[nH]nc(NC(=O)c3ccc(N4CCN(C)CC4)cc3)c2C1 is 93.1

U2OS cell viability of CCN(CC)c1ccc(C(=C2C=CC(=[N+](CC)CC)C=C2)c2ccccc2)cc1 [brilliant-green] is 0.8

U2OS cell viability of CCOC(=O)[C@H](CCc1ccccc1)N[C@@H](C)C(=O)N1C(=O)N(C)C[C@H]1C(=O)O [imidapril] is 95.7

U2OS cell viability of O=C1Cc2cc(CCN3CCN(c4nsc5ccccc45)CC3)c(Cl)cc2N1 [ziprasidone] is 98.9

U2OS cell viability of O=C1[C@H](CC[C@H](O)c2ccc(F)cc2)[C@@H](c2ccc(O)cc2)N1c1ccc(F)cc1 [ezetimibe] is 104

U2OS cell viability of CN[C@@H](C)[C@H]1[C@H](O)C[C@@]2(C)[C@@H]3CC[C@H]4C(C)(C)[C@@H](NC)CC[C@@]45C[C@@]35CC[C@]12C [cyclovirobuxin-D] is 99.8

U2OS cell viability of COc1ccc(COc2ccc(CC#N)cc2)cc1 [O4I1] is 104

U2OS cell viability of CC(C)(C)NCC(O)c1ccccc1Cl (configuration not stated) [tulobuterol] is 101

U2OS cell viability of O=C(CCN1CCN(C(=O)OCc2cc(Cl)cc(Cl)c2)CC1)c1ccc2[nH]c(=O)oc2c1 [PF-8380] is 95.6

U2OS cell viability of COc1ccccc1OCCNCC(O)COc1cccc2[nH]c3ccccc3c12 (configuration not stated) [carvedilol] is 93.1

U2OS cell viability of C[C@H]1CCC/C=C/[C@@H]2C[C@H](O)C[C@H]2[C@H](O)/C=C/C(=O)O1 [brefeldin-A] is 0.2

U2OS cell viability of Cc1oc(-c2ccccc2)nc1CCC(=O)c1ccc(CC2SC(=O)NC2=O)cc1 (configuration not stated) [darglitazone] is 102

U2OS cell viability of C[C@@H]([C@H](O)c1ccc(O)cc1)N1CCC(Cc2ccccc2)CC1 (racemic) [ifenprodil] is 102

U2OS cell viability of CC12CCC(C(=O)N(CCCCN3CCN(c4ccccn4)CC3)C1=O)C2(C)C (configuration not stated) [piricapiron] is 101

U2OS cell viability of COc1cc2c(cc1F)C(c1ccccc1Cl)=Nc1c(n[nH]c1C)N2 [RG1530] is 85.8

U2OS cell viability of Cc1noc(C)c1-c1cc(O)cc([C@@H](O)c2ccccc2)c1 [OXF-BD-02] is 86.9

U2OS cell viability of NC(=O)CN1CCCC1=O [piracetam] is 97.7

U2OS cell viability of O=C1NC(=S)NC(=O)C1C(=O)Nc1ccccc1 [merbarone] is 103
